Tested on: hypertension induced by phenylephrine
Test: In vivo alpha-blocking activity: antagonism of hypertension induced by phenylephrine, intravenous, amyelic rats
Settings: Rattus norvegicus, iv, 3.2 mg/kg; read-out: % of maximum activity (percentage inhibition)
measurement.type: inhibition in vivo at 3.2 mg/kg (%)
API: value field is a number in %; no unit string.

I looked up `COc1cc(C(C)C)c(OCCN(C)CCOc2c(OC)cccc2OC)cc1C` and its inhibition in vivo at 3.2 mg/kg for hypertension induced by phenylephrine was 74.6

For the molecule `COc1cc(C(C)C)c(OCCN(C)CCOc2ccccc2)cc1C` , the measured inhibition in vivo at 3.2 mg/kg on hypertension induced by phenylephrine was 74.7

Record for CC(=O)Oc1cc(C(C)C)c(OCCN(C)CC2COc3ccccc3O2)cc1C (stereo not shown) under target or system hypertension induced by phenylephrine: inhibition in vivo at 3.2 mg/kg reported as 61.1

Field inhibition in vivo at 3.2 mg/kg (system: hypertension induced by phenylephrine) for entry `COc1cc(C(C)C)c(OCCNCCOc2ccccc2)cc1C` = 77

Item Cc1cc(OCCNCC2COc3ccccc3O2)c(C(C)C)cc1O (stereo not shown) was tested on hypertension induced by phenylephrine; the reported inhibition in vivo at 3.2 mg/kg is 100

CC(=O)Oc1cc(C(C)C)c(OCCN(C)C)cc1C [Moxisylyte, reference compound] tested on hypertension induced by phenylephrine gave inhibition in vivo at 3.2 mg/kg: 82.6

Hey, hypertension induced by phenylephrine data for Cc1cc(OCCN(C)CC2COc3ccccc3O2)c(C(C)C)cc1O (stereo not shown) : inhibition in vivo at 3.2 mg/kg came out at 65.7

* * *

Experiment: in vivo
Settings: mouse, oral, 2000 mg/kg, Swiss mice, solvent varies by compound, read-out: Percentage mortality
measurement.type: mortality (%)
Just the number please, in %, no unit attached.

// sample CC(=O)Oc1cc(C(C)C)c(OCCN(C)CC2COc3ccccc3O2)cc1C (stereo not shown) [COR 28 13] , its mortality was 20

* * *

Tested on: unwashed human platelets
Assay: Prevention of the aggregation of human platelets (plasma rich in platelets)
Format: cell-based
Conditions: Platelet, read-out: I 50 (50% inhibition of platelet aggregation), collagen 50μg/ml
Kindly state IC50 for each of the entries shown.

# IC50 (compound: Cc1cc(OCCNCC2COc3ccccc3O2)c(C(C)C)cc1O (centres unmarked) [drawing 29] ) is 52 µM

Form: compound = COc1cc(C(C)C)c(OCCN(C)CCOc2c(OC)cccc2OC)cc1C [drawing 28] ; IC50 = 100 µM

* * *

Consider the following compounds; for each one, report its pIC50.
System: unwashed human platelets
Experiment: Prevention of the aggregation of human platelets (plasma rich in platelets)
Assay type: cell-based
Details: Platelet, read-out: I 50 (50% inhibition of platelet aggregation), adrenalin 1μM/l
Convention used: pIC50 is expressed as -log10 of the molar concentration.

Sure, the documented pIC50 for Cc1cc(OCCNCC2COc3ccccc3O2)c(C(C)C)cc1O (centres unmarked) [drawing 29] is 4.62

Lookup result for COc1cc(C(C)C)c(OCCN(C)CCOc2c(OC)cccc2OC)cc1C [drawing 28] ; measured pIC50: 4.80

* * *

System: unwashed human platelets
Assay: Prevention of the aggregation of human platelets (plasma rich in platelets)
Format: cell-based
Settings: Platelet, read-out: I 50 (50% inhibition of platelet aggregation), ADP 2.5μM/l
measurement.type: pIC50
Scale: pIC50 equals -log10([C]), with [C] in mol/L.

Just so you know, measured pIC50 for COc1cc(C(C)C)c(OCCN(C)CCOc2c(OC)cccc2OC)cc1C [drawing 28] came out at 4.13

Entry Cc1cc(OCCNCC2COc3ccccc3O2)c(C(C)C)cc1O (centres unmarked) [drawing 29] ; pIC50 = 4.24

* * *

Assay: in vivo
Settings: mouse, oral, 1000 mg/kg, Swiss mice, solvent varies by compound, read-out: Percentage mortality
measurement.type: mortality
Please provide the amount together with its unit, number first.

Lab book: mortality of `COc1cc(C(C)C)c(OCCN(C)CCOc2ccccc2)cc1C` noted as 0%

mortality for `COc1cc(C(C)C)c(OCCNCCOc2ccccc2)cc1C` is 20%

For record CC(=O)Oc1cc(C(C)C)c(OCCN(C)CC2COc3ccccc3O2)cc1C (stereo not drawn) the listed mortality is 0%

* * *

Experiment: in vivo
Conditions: mouse, po
measurement.type: LD50 (mg/kg)
Entry rule: numbers only, all in mg/kg.

Notebook: Cc1cc(OCCNCCCc2ccccc2)c(C(C)C)cc1O [COR 28 21] , LD50 read as 359

Recorded LD50 (compound Cc1cc(OCCN(C)CCCc2ccccc2)c(C(C)C)cc1O [COR 28 23] ): 615

compound Cc1cc(OCCN(C)CC2COc3ccccc3O2)c(C(C)C)cc1O (stereo not shown) [COR 28 12] , LD50 observed: 1430

Short answer for Cc1cc(OCCNCC2COc3ccccc3O2)c(C(C)C)cc1O (stereo not shown) [COR 28 14] : LD50 was 952

LD50 in this record for COc1cccc(OC)c1OCCN(C)CCOc1cc(C)c(O)cc1C(C)C [COR 28 22] : 316

The value of LD50 measured for the compound CC(=O)Oc1cc(C(C)C)c(OCCN(C)C)cc1C [Moxisylyte, reference compound] turned out to be 225

For record COc1cc(C(C)C)c(OCCN(C)CCOc2c(OC)cccc2OC)cc1C [COR 28 11] the listed LD50 is 546

* * *

Test system: aortic strips isolated from rabbits (contractions induced by noradrenaline)
Assay: In vitro alpha-blocking activity: antagonism of noradrenaline-induced contractions of aortic strips
Type: cell-based
Conditions: Oryctolagus cuniculus, 14 min, read-out: CI 50 (50% inhibition of standard contraction induced by noradrenaline); noradrenaline 2×10^-6 M/l; contact time 14 min
Experimental: In vitro alpha-blocking activity is determined by the antagonism of contractions of aortic strips isolated from rabbits. The contractions are induced by noradrenaline at a concentration of 2×10^-6 M/l. The technique utilized is derived from that of Furchgott and Bhadrakom (J. Pharmacol., 1953, 108, 129-43). The agonist is introduced in the bath 30 seconds or 14 minutes after the addition of the antagonist.
measurement.type: pIC50
// field semantics: pIC50 = negative decimal log of concentration (mol/L)

Recorded result, `COc1cc(C(C)C)c(OCCN(C)CCOc2c(OC)cccc2OC)cc1C` , pIC50: 4.67

Data provenance: patent US4818772A
